Here, compounds appear alongside Ki reported for Sodium-dependent serotonin transporter (Homo sapiens, UniProt P31645) in the literature.
Write it as a number; the unit µM goes unstated.

Some compounds with recorded Ki:
>>> print(df.to_string())
                                   compound                             system_tested  recorded_measurement
0        Cc1cc(-c2ccccc2CO[C@H]2CCNC2)ccc1F  Sodium-dependent serotonin transporter (Homo sapiens, UniProt P31645)                0.0267
1  N[C@@H]1CCN(c2nc(-c3cccc(F)c3F)c3ccccc3n2)C1  Sodium-dependent serotonin transporter (Homo sapiens, UniProt P31645)                 0.155
2   Clc1ccc(-c2nc(N3CCNCC3)nc3ccccc23)cc1Cl  Sodium-dependent serotonin transporter (Homo sapiens, UniProt P31645)                 0.332

// returns Ki for "C(#Cc1ccc(Oc2cccnc2)c(CNC2CC2)c1)CCN1CCOCC1" with Sodium-dependent serotonin transporter (Homo sapiens, UniProt P31645); value = 0.058

The measured Ki that "FC(F)(F)Oc1ccccc1-c1ccccc1CO[C@H]1CCNC1" showed for Sodium-dependent serotonin transporter (Homo sapiens, UniProt P31645) is 5.65

Sodium-dependent serotonin transporter (Homo sapiens, UniProt P31645) data for "Fc1ccc(-c2cccc(OC(F)(F)F)c2)c(CO[C@H]2CCNC2)c1" ; its Ki: 0.122

Considering CN(C)CCC(Oc1ccc(OCCCN2CCCCC2)cc1)c1ccccc1 (centres unmarked) , its Ki with Sodium-dependent serotonin transporter (Homo sapiens, UniProt P31645) was recorded as 0.282

The measured Ki that "Cc1ccc(-c2ccc(F)cc2CO[C@H]2CCNC2)cc1" showed for Sodium-dependent serotonin transporter (Homo sapiens, UniProt P31645) is 0.423
